tested on: HS 578T breast; assay: NCI-60 one-dose screen, 48 h; details: 10 µM unless noted
Compounds without any hit were thinned out: in the full panel of roughly 83,000, 20% have a hit. Activity calls are given as the source filed them. The calls were made as follows: active = growth percent below 10; inactive = the rest.
Labels: active, inactive

compound: CC(C)(C)CC(C)(C)Nc1c(-c2c(O)c3ccccc3oc2=O)nc2sc3ccccc3n12
class-name: inactive

compound: COc1ccc(C2CC(n3ccnc3)c3cc(OC)c(OC)c(OC)c32)cc1O (centres undefined)
class-name: inactive

compound: CCOC(=O)C1=C(c2ccccc2)N=C2N(c3ccccc3)N=C(C(C)=O)N2C1c1ccc(F)cc1 (centres undefined)
class-name: inactive

compound: Cc1[nH]n(-c2cccc(Cl)c2)c(=O)c1/C=C1\C=c2ccccc2=CC1=O
class-name: inactive

compound: COc1cc(OC)c2c(=O)c3c(CC=C(C)C)cc(OC)c(O)c3oc2c1
class-name: inactive

compound: COc1ccc(/C=C2\CN(C(=O)C(Cl)Cl)C/C(=C\c3ccc(OC)c(OC)c3)C2=O)cc1OC
class-name: inactive

compound: O=C1Nc2ccc(Cl)cc2/C1=C/c1ccc[nH]1
class-name: inactive

compound: CCN(CC)CCOc1ccc(Nc2ncc3cc(-c4c(Cl)cccc4Cl)c(=O)n(CCOC)c3n2)cc1
class-name: active

compound: COC1/C=C/OC2(C)Oc3c(C)c(O)c4c(O)c(c(/C=N/N(c5ccccc5)c5ccccc5)c(O)c4c3C2=O)NC(=O)C(C)=C/C=C/C(C)C(O)C(C)C(O)C(C)C(OC(C)=O)C1C (centres undefined)
class-name: inactive
